Value source: paper PMC4520450

experimental target: PRL-3 (Homo sapiens)
Construct: His-TEV (cleaved yes); made in house
Sequence (O75365 whole entry): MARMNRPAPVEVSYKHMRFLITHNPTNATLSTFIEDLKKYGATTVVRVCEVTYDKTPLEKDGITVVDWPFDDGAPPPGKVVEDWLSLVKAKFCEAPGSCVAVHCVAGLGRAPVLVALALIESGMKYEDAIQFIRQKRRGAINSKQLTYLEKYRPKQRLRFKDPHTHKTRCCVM
assay text: DiFMUP phosphatase activity assay for PRLs
Format: biochemical
reported property: IC50

[in] Requested field: IC50. Item: `O=C(O)c1cc(O)c(O)c(O)c1`
[out] > 1000 µM

====

assay text: Cytotoxicity by flow cytometry with propidium iodide
Assay type: cell-based
study conditions: human
reported property: viability at 24 h, 150 µM

[in] Would you mind telling me what viability at 24 h, 150 µM value was observed for Oc1cc(O)c2c(c1)O[C@H](c1ccc(O)c(O)c1)[C@@H](O)[C@@H]2c1c(O)cc(O)c2c1O[C@H](c1ccc(O)c(O)c1)[C@@H](O)[C@@H]2c1c(O)cc(O)c2c1O[C@H](c1ccc(O)c(O)c1)[C@@H](O)C2 [Procyanidin C2 (9), Procyanidin C2] ?
[out] ~50%
